// provenance: patent US20240252677A1

Assay: Dimensions (size, PDI) of DNPs co-assembled from IAJDs and Luc-mRNA by DLS
Format: physicochemical
Conditions: Table 17; DNPs used in vivo, IAJD 4 mg/mL, Luc-mRNA 0.10 mg/mL, acetate pH 4.0
Lab note: anything with PDI below 0.3 is marked criterion met; values at 0.3 or higher are marked criterion not met.

compound	discrete_label
CCCCCCCCCCCCCCOc1cc(COC(=O)c2cc(OCCOCCOCCCC(=O)CCCN3CCCCC3)c(OCCOCCOCCOCc3ccccc3)c(OCCOCCOCCOC(=O)CCCN3CCCCC3)c2)cc(OCCCCCCCCCCC)c1 [IAJD 156]	criterion met
CCCCCCCCCCCCCCCCOc1cc(COC(=O)CCCN2CCN(C)CC2)cc(OCCCCCCCCCCCC)c1 [IAJD 106]	criterion met
CCCCCCCCCCCCCCCCOc1cc(COC(=O)CCCN2CCN(CCO)CC2)cc(OCCCCCCCCCCCCCCC)c1 [IAJD 150]	criterion not met
CCCCCCCCCCCCCCCOc1cc(COC(=O)c2cc(OCCOCCOCCCC(=O)CCCN3CCCCC3)c(OCCOCCOCCOCc3ccccc3)c(OCCOCCOCCOC(=O)CCCN3CCCCC3)c2)cc(OCCCCCCCCCCC)c1 [IAJD 157]	criterion met
CCCCCCCCCCCCCOc1cc(COC(=O)CCCN2CCN(C)CC2)cc(OCCCCCCCCCCC)c1 [IAJD 116]	criterion met

* * *

PDI values for the compounds below.
Test: Stability of DNPs by DLS after storage at 5° C.
Assay type: physicochemical
Settings: after 35 days at 5° C.; IAJD 4.0 mg/mL + Luc-mRNA 0.1 mg/mL, acetate buffer
parameter: PDI

In [3]: df
Out[3]:
                      smiles_representation  parameter  readout_value
0  CCCCCCCCCCCCCCCCCCOc1cc(COC(=O)CCCN2CCN(CCO)CC2)cc(OCCCCCCCCCCCCCCC)c1        PDI          0.471
1  CCCCCCCCCCCCCCCCCOc1cc(COC(=O)CCCN2CCN(C)CC2)cc(OCCCCCCCCCCCCCCC)c1        PDI          0.240
2  CCCCCCCCCCCCCCCOc1cc(COC(=O)CCCN2CCN(CCO)CC2)cc(OCCCCCCCC)c1        PDI          0.261
3  CCCCCCCCCCCCCCCCCCOc1cc(COC(=O)CCCN2CCN(C)CC2)cc(OCCCCCCCCCCCCCCC)c1        PDI          0.232
4  CCCCCCCCCCCCCCCCCOc1cc(COC(=O)CCCN2CCN(CCO)CC2)cc(OCCCCCCCCCCCCCCC)c1        PDI          0.286

* * *

Below, each entry is listed with its recorded pKa.
Assay: pKa measurements of individual IAJD molecules by titration
Type: physicochemical
Settings: ethanol saturated with NaCl, titrated with 0.1 M aqueous HCl; individual IAJD molecules, titration

smiles_representation	pKa
CCCCCCCCCCCCCCCOc1cc(COC(=O)CCCN2CCN(C)CC2)cc(OCCCCCCCCCCCCCC)c1	6.32
CCCCCCCCCCCCCCCCCCOc1cc(COC(=O)CCCN2CCN(CCO)CC2)cc(OCCCCCCCCCCCCC)c1	5.97
CCCCCCCCCCCCCCCCCCOc1cc(COC(=O)CCCN2CCN(CCO)CC2)cc(OCCCCCCCCCCC)c1	6.68
CCCCCCCCCCCCCCCOc1cc(COC(=O)CCCN2CCN(C)CC2)cc(OCCCCCCCCCCC)c1	6.33
CCCCCCCCCCCCOc1cc(COC(=O)c2cc(OCCOCCOCCCC(=O)CCCN3CCCCC3)c(OCCOCCOCCOCc3ccccc3)c(OCCOCCOCCOC(=O)CCCN3CCCCC3)c2)cc(OCCCCCCCCCCCC)c1	7.64
CCCCCCCCCCCCCCCOc1cc(COC(=O)c2cc(OCCOCCOCCCC(=O)CCCN3CCCCC3)c(OCCOCCOCCOCc3ccccc3)c(OCCOCCOCCOC(=O)CCCN3CCCCC3)c2)cc(OCCCCCCCCCCC)c1	7.42

* * *

Assay: DLS size of dendrimersomes assembled from glycerol-JDs in water at different concentrations
Type: physicochemical
Details: JD 0.05 mg·mL−1 in water; size distribution by intensity
# Dh (nm) per entry

compound	Dh (nm)
CCCCCCCCCCCCOc1cc(OCCCCCCCCCCCC)cc(C(=O)OC[C@H](COC(=O)C(C)(COC(=O)c2cc(OCCOCCOCCOC)c(OCCOCCOCCOC)c(OCCOCCOCCOC)c2)COC(=O)c2cc(OCCOCCOCCOC)c(OCCOCCOCCOC)c(OCCOCCOCCOC)c2)OC(=O)c2cc(OCCCCCCCCCCCC)cc(OCCCCCCCCCCCC)c2)c1 [Compound 1R, (3,5)-12G1-GC-(R)-BMPA-(3,4,5)-3EO-G1]	87
CCCCCCCCCCCCOc1cc(OCCCCCCCCCCCC)cc(C(=O)OCC(C)(COC(=O)c2cc(OCCCCCCCCCCCC)cc(OCCCCCCCCCCCC)c2)C(=O)OC[C@@H](COC(=O)c2cc(OCCOCCOCCOC)c(OCCOCCOCCOC)c(OCCOCCOCCOC)c2)OC(=O)c2cc(OCCOCCOCCOC)c(OCCOCCOCCOC)c(OCCOCCOCCOC)c2)c1 [Compound 2R, (3,5)-12G1-BMPA-GC-(R)-(3,4,5)-3EO-G1]	108
CCCCCCCCCCCCOc1cc(OCCCCCCCCCCCC)cc(C(=O)OCC(COC(=O)c2cc(OCCCCCCCCCCCC)cc(OCCCCCCCCCCCC)c2)OC(=O)C(C)(COC(=O)c2cc(OCCOCCOCCOC)c(OCCOCCOCCOC)c(OCCOCCOCCOC)c2)COC(=O)c2cc(OCCOCCOCCOC)c(OCCOCCOCCOC)c(OCCOCCOCCOC)c2)c1	97

* * *

Listing of entries alongside the reported Dh (nm).
Assay: DLS size of dendrimersomes assembled from glycerol-JDs in water at different concentrations
Assay type: physicochemical
Details: JD 0.25 mg·mL−1 in water; size distribution by intensity
Procedure: Assembly of all eight glycerol-JDs was performed by injection of their ethanol solution (50 μL) into 1 mL of Milli-Q water. The size distribution and structure of resulting DSs were analyzed by DLS (FIG. 84) and cryo-TEM. […] In a certain concentration range the size of DSs increased with the concentration of JDs injected in water or buffer. […] The dimensions of the assemblies were identical when the concentrations of the JDs in water were identical. […]

compound	unit_abbreviation	Dh (nm)
CCCCCCCCCCCCOc1cc(OCCCCCCCCCCCC)cc(C(=O)OC[C@@H](COC(=O)C(C)(COC(=O)c2cc(OCCOCCOCCOC)c(OCCOCCOCCOC)c(OCCOCCOCCOC)c2)COC(=O)c2cc(OCCOCCOCCOC)c(OCCOCCOCCOC)c(OCCOCCOCCOC)c2)OC(=O)c2cc(OCCCCCCCCCCCC)cc(OCCCCCCCCCCCC)c2)c1 [Compound 1S, (3,5)-12G1-GC-(S)-BMPA-(3,4,5)-3EO-G1]	nm	142
CCCCCCCCCCCCOc1cc(OCCCCCCCCCCCC)cc(C(=O)OCC(C)(COC(=O)c2cc(OCCCCCCCCCCCC)cc(OCCCCCCCCCCCC)c2)C(=O)OC(COC(=O)c2cc(OCCOCCOCCOC)c(OCCOCCOCCOC)c(OCCOCCOCCOC)c2)COC(=O)c2cc(OCCOCCOCCOC)c(OCCOCCOCCOC)c(OCCOCCOCCOC)c2)c1	nm	132
CCCCCCCCCCCCOc1cc(OCCCCCCCCCCCC)cc(C(=O)OCC(COC(=O)C(C)(COC(=O)c2cc(OCCOCCOCCOC)c(OCCOCCOCCOC)c(OCCOCCOCCOC)c2)COC(=O)c2cc(OCCOCCOCCOC)c(OCCOCCOCCOC)c(OCCOCCOCCOC)c2)OC(=O)c2cc(OCCCCCCCCCCCC)cc(OCCCCCCCCCCCC)c2)c1 (racemic) [Compound 1rac, (3,5)-12G1-GC-(rac)-BMPA-(3,4,5)-3EO-G1]	nm	142
CCCCCCCCCCCCOc1cc(OCCCCCCCCCCCC)cc(C(=O)OC[C@H](COC(=O)C(C)(COC(=O)c2cc(OCCOCCOCCOC)c(OCCOCCOCCOC)c(OCCOCCOCCOC)c2)COC(=O)c2cc(OCCOCCOCCOC)c(OCCOCCOCCOC)c(OCCOCCOCCOC)c2)OC(=O)c2cc(OCCCCCCCCCCCC)cc(OCCCCCCCCCCCC)c2)c1 [Compound 1R, (3,5)-12G1-GC-(R)-BMPA-(3,4,5)-3EO-G1]	nm	140

* * *

Assay: Stability of DNPs by DLS after storage at 5° C.
Type: physicochemical
Set-up: key: U: DLS curve showed unimodal size distribution; B: DLS curve showed bimodal size distribution; M: DLS curve showed multimodal size distribution
Conditions: after 75 days at 5° C.
parameter: Size distribution type (DLS curve)

smiles_representation	readout_value
CCCCCCCCCCCOc1cc(COC(=O)CCCN2CCN(C)CC2)cc(OCCCCCCCCCC)c1	(B)
CCCCCCCCCCCCOc1cc(COC(=O)c2cc(OCCOCCOCCCC(=O)CCCN3CCCCC3)c(OCCOCCOCCOCc3ccccc3)c(OCCOCCOCCOC(=O)CCCN3CCCCC3)c2)cc(OCCCCCCCCCCCC)c1	(U)
CCCCCCCCCCCOc1cc(COC(=O)c2cc(OCCOCCOCCCC(=O)CCCN3CCCCC3)c(OCCOCCOCCOCc3ccccc3)c(OCCOCCOCCOC(=O)CCCN3CCCCC3)c2)cc(OCCCCCCCCCCC)c1	(U)
CCCCCCCCCCCCCCCOc1cc(COC(=O)CCCN2CCN(C)CC2)cc(OCCCCCCCCCCC)c1	(B)
